assayTarget: lipoxygenase (EC 1.13.11.12) Type 1 (soybean) (Glycine max, UniProt P08170)
Construct: gene LOX1.1
Sequence (P08170 whole entry): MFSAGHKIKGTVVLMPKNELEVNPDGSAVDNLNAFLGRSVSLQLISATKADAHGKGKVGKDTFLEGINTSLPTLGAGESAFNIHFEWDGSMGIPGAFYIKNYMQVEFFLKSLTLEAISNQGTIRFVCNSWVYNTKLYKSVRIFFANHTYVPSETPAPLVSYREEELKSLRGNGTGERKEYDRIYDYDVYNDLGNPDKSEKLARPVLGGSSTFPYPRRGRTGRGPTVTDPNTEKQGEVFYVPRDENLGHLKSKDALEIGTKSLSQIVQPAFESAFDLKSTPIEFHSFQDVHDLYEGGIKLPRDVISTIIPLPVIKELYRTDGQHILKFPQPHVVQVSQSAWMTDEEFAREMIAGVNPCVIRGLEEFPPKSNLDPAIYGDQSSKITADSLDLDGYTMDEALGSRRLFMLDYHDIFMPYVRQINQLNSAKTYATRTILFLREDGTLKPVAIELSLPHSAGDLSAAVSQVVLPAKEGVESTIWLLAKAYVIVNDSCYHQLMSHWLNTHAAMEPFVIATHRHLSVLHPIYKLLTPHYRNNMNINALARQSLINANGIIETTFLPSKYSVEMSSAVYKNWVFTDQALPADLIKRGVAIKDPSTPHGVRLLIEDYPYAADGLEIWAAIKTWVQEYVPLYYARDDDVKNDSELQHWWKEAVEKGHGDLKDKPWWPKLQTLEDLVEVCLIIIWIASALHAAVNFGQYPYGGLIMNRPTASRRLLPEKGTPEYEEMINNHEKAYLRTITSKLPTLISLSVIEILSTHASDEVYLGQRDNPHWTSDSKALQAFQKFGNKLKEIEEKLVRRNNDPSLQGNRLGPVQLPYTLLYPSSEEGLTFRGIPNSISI
assayExplanation: spectrophotometric lipoxygenase inhibition assay with linoleic acid substrate (positive control)
Type: biochemical
runConditions: read-out: IC50
measuredMetric: pIC50
// pIC50 here means minus log10 of the molar concentration (mol/L)

Consider NC(=O)N1C(=O)/C(=C(\O)c2cccs2)c2cc(Cl)ccc21 [Tenidap] . Its measured pIC50 is 4.64

###

assayTarget: lipoxygenase (EC 1.13.11.12) Type 1 (soybean) (Glycine max)
Construct: gene LOX1.1
assayExplanation: spectrophotometric lipoxygenase inhibition assay with linoleic acid substrate (positive control)
Assay type: biochemical
measuredMetric: IC50 (µM)
Unit µM implied. Number only.

IC50 recorded for this compound, O=c1cc(-c2ccccc2)oc2cc(O)c(O)c(O)c12 [Baicalein] , is 40.9
